Test system: ATP;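 further: ATP exposure 15 min at 22 °C before imaging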
Experiment: switch fluorescence ratio, 500 uM ATP over buffer (Cy3 cluster intensity, sum of 5 cycles each) (fold (ratio)); higher = stronger signal-on switching upon ATP binding; sequences stand for … in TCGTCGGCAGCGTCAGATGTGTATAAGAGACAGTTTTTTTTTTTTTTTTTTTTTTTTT…TC
Details: aptamer strand: ATP DNA aptamer (quencher-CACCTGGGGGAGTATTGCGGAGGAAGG + anchor), 100 nM annealed; ATP concentration: 500 uM
Outcome: 1.0 for switch fluorescence ratio of at least 1; 0.0 for anything lower.

# check: switch fluorescence ratio of `AAAAGAAAGC` is greater than or equal to 1
0.0

# check: switch fluorescence ratio of `TTTAAGCGAT` is greater than or equal to 1
1.0

***
# check: switch fluorescence ratio of `GACTTTACTG` is greater than or equal to 1
1.0

# check: switch fluorescence ratio of `CGGTAATATC` is greater than or equal to 1
1.0

# check: switch fluorescence ratio of `GGATATACTT` is greater than or equal to 1
1.0

====

Test system: ATP;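 further: ATP exposure 15 min at 22 °C before imaging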
Assay: switch fluorescence ratio, 500 uM ATP over buffer (Cy3 cluster intensity, sum of 5 cycles each) (fold (ratio)); higher = stronger signal-on switching upon ATP binding; sequences stand for … in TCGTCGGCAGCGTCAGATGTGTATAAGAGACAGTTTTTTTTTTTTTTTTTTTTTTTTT…TC
Settings: aptamer strand: ATP DNA aptamer (quencher-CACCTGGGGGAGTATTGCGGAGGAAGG + anchor), 100 nM annealed; ATP concentration: 500 uM
Quick reference: switch fluorescence ratio of the listed items.

Form field: reported switch fluorescence ratio of `TTACAATTTT`
0.985

Form field: reported switch fluorescence ratio of `CGTTTGCAGT`
1.02

Form field: reported switch fluorescence ratio of `GTAGTTTGCG`
0.928

Form field: reported switch fluorescence ratio of `TGGACGTGGG`
0.98

Form field: reported switch fluorescence ratio of `GCTGGTCATG`
0.989

====

Quick reference: switch fluorescence ratio of the listed items.
System: ATP;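 further: ATP exposure 15 min at 22 °C before imaging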
Assay: switch fluorescence ratio, 500 uM ATP over buffer (Cy3 cluster intensity, sum of 5 cycles each) (fold (ratio)); higher = stronger signal-on switching upon ATP binding; sequences stand for … in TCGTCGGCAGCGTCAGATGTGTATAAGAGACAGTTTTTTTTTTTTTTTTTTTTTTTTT…TC
Conditions: aptamer strand: ATP DNA aptamer (quencher-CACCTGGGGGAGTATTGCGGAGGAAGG + anchor), 100 nM annealed; ATP concentration: 500 uM
// return a plain number; no unit text

Form field: reported switch fluorescence ratio of `TTTGGATACA`
0.974

Form field: reported switch fluorescence ratio of `GCATCTTCAC`
1.04

***
Form field: reported switch fluorescence ratio of `GTGGGGAGTC`
0.992

Form field: reported switch fluorescence ratio of `AATGGTAAAC`
1.04

Form field: reported switch fluorescence ratio of `CGCGGGAAAA`
1.01

Form field: reported switch fluorescence ratio of `GATTCACGGT`
1.01

Form field: reported switch fluorescence ratio of `AGCGGGAGGG`
1.02

Form field: reported switch fluorescence ratio of `TTTGAAGTTT`
1

Form field: reported switch fluorescence ratio of `CGCCGAAGGG`
0.985

Form field: reported switch fluorescence ratio of `ATGGATTTT`
1

Form field: reported switch fluorescence ratio of `GACGTTTCAG`
0.95

Form field: reported switch fluorescence ratio of `AAAGATTAAA`
0.992

Form field: reported switch fluorescence ratio of `ACGAGGTGGG`
0.987

Form field: reported switch fluorescence ratio of `TTGGAGGGAG`
0.999

Form field: reported switch fluorescence ratio of `CGGAAGTTAT`
1.01
